assay: plasma protein binding
Measurement label: fraction unbound

What value of measured fraction unbound is listed for CC(=O)N1CCC(NC(=O)NC23CC4CC(CC(C4)C2)C3)CC1 [Compound 14a] ?
0.39 to 0.42

Origin of measurements: paper PMC3529200
